Target chain: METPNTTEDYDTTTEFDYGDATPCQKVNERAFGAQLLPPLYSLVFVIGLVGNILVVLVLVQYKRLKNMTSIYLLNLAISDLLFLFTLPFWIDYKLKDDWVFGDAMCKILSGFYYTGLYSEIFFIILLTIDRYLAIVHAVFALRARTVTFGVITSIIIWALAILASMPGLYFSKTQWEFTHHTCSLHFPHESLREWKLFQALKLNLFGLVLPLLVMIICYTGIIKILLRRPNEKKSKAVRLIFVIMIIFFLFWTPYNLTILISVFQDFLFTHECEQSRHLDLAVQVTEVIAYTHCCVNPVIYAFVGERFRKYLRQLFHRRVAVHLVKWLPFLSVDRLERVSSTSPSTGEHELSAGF
Recorded IC50 values for a group of compounds are listed next.

Take a look at these entries with their results.
Cc1noc(C)c1Nc1c(N2CCC[C@@H]2c2nnc(C)n2Cc2ccc(Cl)cc2)c(=O)c1=O [Compound 555]
500 to 5000 nM
CC[C@H](NC(=O)N1CCC[C@@H]1c1ncnn1Cc1ccc(Cl)cc1)c1cc2ccccc2o1 [Compound 80]
< 50 nM

Query (compound): O=C(NC1CCCOc2ccc(Cl)cc21)N1CCC[C@@H]1c1ncnn1Cc1ccc(Cl)cc1 (stereo partly shown) [Compound 84] ; field requested: IC50 50 to 500 nM

// query: Cc1nnc([C@H]2CCCN2/C(=N\C#N)N[C@H]2CCOc3cc(C#N)ccc32)n1Cc1ccc(Cl)cc1 [Compound 345] 50 to 500 nM
